assay: self-splicing fitness, log relative to wild type (ln ratio); higher = more splicing; Tetrahymena group I intron in knt gene, E. coli kanamycin selection, DiMSum; sequences stand for … in CUCUCU…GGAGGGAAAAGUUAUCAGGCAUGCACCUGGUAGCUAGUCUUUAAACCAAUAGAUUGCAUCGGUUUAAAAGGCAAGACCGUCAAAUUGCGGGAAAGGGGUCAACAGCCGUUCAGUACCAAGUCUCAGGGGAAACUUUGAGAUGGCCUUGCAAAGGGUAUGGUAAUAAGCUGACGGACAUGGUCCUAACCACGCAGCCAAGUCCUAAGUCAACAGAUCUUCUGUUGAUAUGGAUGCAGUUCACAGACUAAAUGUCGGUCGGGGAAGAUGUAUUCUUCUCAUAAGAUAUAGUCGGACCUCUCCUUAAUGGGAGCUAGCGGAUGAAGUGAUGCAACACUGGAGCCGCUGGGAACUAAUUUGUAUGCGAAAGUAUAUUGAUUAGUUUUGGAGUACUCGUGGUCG; conditions: 30 °C;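 also: selection with 25 µg/mL kanamycin versus none on LB agar overnight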
self-splicing fitness (ln) vs -2: at or above is Criterion met, below is Criterion not met.

Lookup: Is self-splicing fitness (ln) for UAGAAGCAAUAUUACGUCCG at or above -2?
Found: Criterion met

Lookup: Subsequent entry: AACAAGCAAUAUUACGGUGU
Found: Criterion not met

Lookup: Subsequent entry: CAGCAGCAAUAUUACGGUCU
Found: Criterion not met

Lookup: Subsequent entry: UCUCAGCAAUAUUACGACUA
Found: Criterion met

Lookup: Subsequent entry: GGCUAGCAAUAUUACGCAUG
Found: Criterion met

Lookup: Subsequent entry: GCCAAGCAAUAUUACGAUGG
Found: Criterion not met

====

test: self-splicing fitness, log relative to wild type (ln ratio); higher = more splicing; Tetrahymena group I intron in knt gene, E. coli kanamycin selection, DiMSum; sequences stand for … in CUCUCU…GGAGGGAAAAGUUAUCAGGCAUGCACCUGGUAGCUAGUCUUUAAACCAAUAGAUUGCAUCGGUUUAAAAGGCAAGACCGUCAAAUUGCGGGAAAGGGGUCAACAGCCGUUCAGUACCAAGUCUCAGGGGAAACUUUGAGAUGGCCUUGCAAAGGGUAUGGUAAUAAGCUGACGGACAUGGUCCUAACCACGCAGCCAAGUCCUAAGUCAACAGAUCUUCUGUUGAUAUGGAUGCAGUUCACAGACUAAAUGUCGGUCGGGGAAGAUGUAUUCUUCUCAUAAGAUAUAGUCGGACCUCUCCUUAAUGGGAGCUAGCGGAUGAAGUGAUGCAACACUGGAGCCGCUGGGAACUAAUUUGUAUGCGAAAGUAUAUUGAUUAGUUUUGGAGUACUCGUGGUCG; conditions: 37 °C
Recorded self-splicing fitness (ln) by entry

Example entries begin here.
Lookup: May I ask what self-splicing fitness (ln) has been recorded for UCGUAGCAAUAUUACGUACG ?
Found: -1.96

Lookup: Subsequent entry: UGCCAGCAAUAUUACGUGAC
Found: -3.2

Lookup: Subsequent entry: UGGUAGCAAUAUUACGCUUU
Found: -1.46

Lookup: Subsequent entry: GCGGAGCAAUAUUACGAUUA
Found: -1.73

Lookup: Subsequent entry: AAAUAGCAAUAUUACGAUUC
Found: -0.733

***
Lookup: May I ask what self-splicing fitness (ln) has been recorded for UGUGAGCAAUAUUACGCACC ?
Found: -1.14

Lookup: Subsequent entry: CUACAGCAAUAUUACGAUAU
Found: -1.4

Lookup: Subsequent entry: CGAUAGCAAUAUUACGGUGU
Found: -1.06

Lookup: Subsequent entry: CGAAAGCAAUAUUACGCAGU
Found: -2.69

Lookup: Subsequent entry: CUCAAGCAAUAUUACGCAGU
Found: -2.32

Lookup: Subsequent entry: CUUUAGCAAUAUUACGCACU
Found: -1.83

Lookup: Subsequent entry: AAAAAGCAAUAUUACGCUCG
Found: 0.0542

Lookup: Subsequent entry: UUCUAGCAAUAUUACGCCUA
Found: -0.0729

Lookup: Subsequent entry: GUUGAGCAAUAUUACGGACA
Found: -1.32

Lookup: Subsequent entry: GCCCAGCAAUAUUACGUCCU
Found: -0.722

Lookup: Subsequent entry: CAAAAGCAAUAUUACGAUGC
Found: -2.99

Lookup: Subsequent entry: GCUAAGCAAUAUUACGUGCU
Found: -2.13

Lookup: Subsequent entry: CAGCAGCAAUAUUACGCGCC
Found: -0.362

Lookup: Subsequent entry: AUACAGCAAUAUUACGGGCC
Found: -2.82

Lookup: Subsequent entry: UAUGAGCAAUAUUACGCUGG
Found: -1.79

This collection of values is drawn from the supplement of paper PMC7877785.
